Source: patent US9629822B2

Biological target: US28 receptor (Human cytomegalovirus, UniProt P69332)
Construct: expressed in transfected cells; host or cells: HEK 293T cells, transiently transfected
Sequence (P69332 whole entry): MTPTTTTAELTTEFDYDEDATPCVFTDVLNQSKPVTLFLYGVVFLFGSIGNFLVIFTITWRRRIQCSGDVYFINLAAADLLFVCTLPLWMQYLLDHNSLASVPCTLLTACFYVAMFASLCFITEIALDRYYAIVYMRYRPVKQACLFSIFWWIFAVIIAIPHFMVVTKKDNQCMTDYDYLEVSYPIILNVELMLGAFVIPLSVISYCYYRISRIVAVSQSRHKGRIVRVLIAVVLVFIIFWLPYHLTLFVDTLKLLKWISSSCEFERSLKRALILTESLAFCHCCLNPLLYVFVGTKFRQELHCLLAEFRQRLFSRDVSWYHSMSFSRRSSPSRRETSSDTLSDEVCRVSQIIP
Assay: PathDetect trans Elk1 luciferase reporter gene assay in US28-transfected 293T HEK cells
Assay type: cell-based, Human Cytomegalovirus (HCMV)
Conditions: pEC50 ± SEM, 293T HEK cells transiently expressing US28, Elk1 reporter
VALUE KIND: EC50 (µM)
Write the answer as a number in µM, unit excluded.

- COc1cc(Br)cc(/C=C/C(=O)c2ccccc2O)c1OC: 6.61
- CCOc1ccc(Br)cc1-c1oc2ccccc2c(=O)c1O: 0.832
- COc1ccc(Br)cc1-c1cc(=O)c2c(OCc3ccccc3)cccc2o1 [Compound 11b]: 3.47

In: Look up EC50 of COc1ccccc1/C=C/C(=O)c1ccccc1O and report it.
Out: 1.45

In: Look up EC50 of CCOc1ccc(Cl)cc1-c1oc2ccccc2c(=O)c1O and report it.
Out: 0.309

In: Look up EC50 of COc1ccc(Br)cc1/C=C/C(=O)c1ccc2ccccc2c1O and report it.
Out: 2.88
